Target: PI3K-δ (PI3K(p1108/p857) (h)) (Homo sapiens, UniProt O00329)
Sequence (O00329 whole entry): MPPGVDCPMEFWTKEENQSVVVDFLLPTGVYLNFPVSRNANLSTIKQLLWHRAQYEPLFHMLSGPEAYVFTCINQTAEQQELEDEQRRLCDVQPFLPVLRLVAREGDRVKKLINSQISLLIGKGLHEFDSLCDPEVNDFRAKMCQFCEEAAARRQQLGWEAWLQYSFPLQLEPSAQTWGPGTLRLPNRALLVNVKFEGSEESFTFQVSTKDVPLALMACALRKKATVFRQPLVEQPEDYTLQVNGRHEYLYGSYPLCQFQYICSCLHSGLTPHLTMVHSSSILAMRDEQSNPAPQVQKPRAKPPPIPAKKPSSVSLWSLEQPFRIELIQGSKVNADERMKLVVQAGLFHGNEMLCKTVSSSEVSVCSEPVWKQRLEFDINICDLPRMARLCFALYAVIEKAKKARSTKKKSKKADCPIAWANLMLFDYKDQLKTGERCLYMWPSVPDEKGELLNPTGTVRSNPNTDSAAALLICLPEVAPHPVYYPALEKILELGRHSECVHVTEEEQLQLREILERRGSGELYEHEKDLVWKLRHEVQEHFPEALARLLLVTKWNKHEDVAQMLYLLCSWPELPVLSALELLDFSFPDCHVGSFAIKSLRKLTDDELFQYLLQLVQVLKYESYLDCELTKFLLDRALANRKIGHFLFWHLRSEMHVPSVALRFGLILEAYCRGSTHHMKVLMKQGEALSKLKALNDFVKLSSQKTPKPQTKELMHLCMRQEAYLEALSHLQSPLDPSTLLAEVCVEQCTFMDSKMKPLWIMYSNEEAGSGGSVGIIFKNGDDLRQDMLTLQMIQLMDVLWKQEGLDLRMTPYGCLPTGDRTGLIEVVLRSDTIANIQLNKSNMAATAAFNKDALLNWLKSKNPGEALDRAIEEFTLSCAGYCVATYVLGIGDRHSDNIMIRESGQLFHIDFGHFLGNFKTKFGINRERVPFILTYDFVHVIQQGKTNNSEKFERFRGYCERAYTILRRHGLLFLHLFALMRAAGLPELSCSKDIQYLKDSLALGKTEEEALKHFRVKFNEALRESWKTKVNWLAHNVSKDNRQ
Sequence (P27986 whole entry partner): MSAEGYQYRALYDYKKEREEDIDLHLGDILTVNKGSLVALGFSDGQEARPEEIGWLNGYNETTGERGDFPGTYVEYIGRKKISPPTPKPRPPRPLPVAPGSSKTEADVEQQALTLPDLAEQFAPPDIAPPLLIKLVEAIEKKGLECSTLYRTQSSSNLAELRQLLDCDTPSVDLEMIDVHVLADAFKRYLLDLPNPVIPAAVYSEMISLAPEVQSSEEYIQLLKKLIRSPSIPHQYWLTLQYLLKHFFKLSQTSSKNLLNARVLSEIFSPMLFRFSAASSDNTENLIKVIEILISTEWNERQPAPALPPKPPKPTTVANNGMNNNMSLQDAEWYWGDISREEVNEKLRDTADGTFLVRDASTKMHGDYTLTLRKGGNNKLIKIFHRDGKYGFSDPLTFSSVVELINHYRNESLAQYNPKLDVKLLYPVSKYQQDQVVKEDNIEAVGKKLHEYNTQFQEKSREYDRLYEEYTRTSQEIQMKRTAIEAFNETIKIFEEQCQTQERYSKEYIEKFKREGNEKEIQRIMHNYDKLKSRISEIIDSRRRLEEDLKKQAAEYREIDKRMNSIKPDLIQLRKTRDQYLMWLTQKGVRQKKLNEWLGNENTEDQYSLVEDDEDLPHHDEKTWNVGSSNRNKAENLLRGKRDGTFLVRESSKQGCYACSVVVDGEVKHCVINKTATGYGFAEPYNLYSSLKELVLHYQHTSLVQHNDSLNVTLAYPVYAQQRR
Assay: Evaluation of inhibitory activity against PI3K-δ (HTRF kinase assay)
Assay type: biochemical
Conditions: compound concentration 0.01 μM; read-out: EXP_VALUE(% Inhibition) PI3K-δ 0.01 μM
Procedure: <Experimental Example 1> Evaluation of Inhibitory Activity Properties Against PI3K-δ […] A detection buffer comprising Eu (europium)-labelled anti-GST monoclonal antibody, GST-tagged GRP1 PH domain and streptavidin-allophycocyanin was added. A plate was read in a time-resolved fluorescence mode and a homogeneous time-resolved fluorescence (HTRF) signal was determined according to HTRF=10000×(Em 665 nm/Em 620 nm).
// false (0) strictly below 70% in inhibition at 0.01 µM; true (1) otherwise

Here are 5 compounds together with their reported answers.
C[C@H](Nc1ncnc2[nH]ccc(=O)c12)c1c(Cl)c2cccc(-c3cnc(N4CCC4)nc3)c2c(=O)n1-c1ccccc1 = true (1)
C[C@H](Nc1ncnc2[nH]ccc(=O)c12)c1c(Cl)c2cccc(-c3cnoc3)c2c(=O)n1-c1ccccc1 = false (0)
C[C@H](Nc1ncnc2[nH]ccc(=O)c12)c1c(Cl)c2cccc(-c3ccc4ocnc4c3)c2c(=O)n1-c1ccccc1 = false (0)
C[C@H](Nc1ncnc2[nH]ccc(=O)c12)c1c(Cl)c2cccc(-c3ccc(C(=O)O)cc3)c2c(=O)n1-c1ccccc1 = false (0)
C[C@H](Nc1ncnc2[nH]ccc(=O)c12)c1c(Cl)c2cccc(-c3cnc(C4CC4)nc3)c2c(=O)n1-c1ccccc1 = false (0)

Task: Is the recorded value of inhibition at 0.01 µM equal to or greater than 70% for this compound? C[C@H](Nc1ncnc2[nH]ccc(=O)c12)c1c(Cl)c2cccc(N3CCc4ccccc43)c2c(=O)n1-c1ccccc1
Output: false (0)

Task: Now the same for C[C@H](Nc1ncnc2[nH]ccc(=O)c12)c1c(Cl)c2cccc(-c3ccc(C4CC4)cc3)c2c(=O)n1-c1ccccc1
Output: false (0)

Task: Now the same for CCOC(=O)c1cccc2c(Cl)c([C@H](C)Nc3ncnc4[nH]ccc(=O)c34)n(-c3ccccc3)c(=O)c12
Output: true (1)
